The origin of these recorded values is ChEMBL document CHEMBL1123523.

tested on: Mus musculus; assay: Compound was tested for neurotoxic property after intracranial administration in mice; type: ADME, organism-based; settings: in vivo, other
Measured LD50, listed per entry for reference.
Report the figure in µg without appending any unit label.

# molecule, unit-string, reported-result
rows = [
    ("CC(N)Cc1cc(O)c(O)cc1N (stereo not given)", "µg", 45),
    ("NCCc1cc(O)c(O)cc1O [OXIDOPAMINE]", "µg", 80),
    ("NCCc1cc(O)c(O)cc1N", "µg", 50),
    ("NCCc1c[nH]c2c(O)cc(O)cc12", "µg", 55),
]

Here is another molecule to look at.
INPUT: Annotate the molecule `NCCc1c[nH]c2c1C(=O)C(=O)C=C2O` with its measured LD50.
OUTPUT: 20
